Field: pKd. Provide a value for each of the binders that follow.
Molecular target: T1, human IL4 (human, UniProt P05112 25-153, biotinylated in the SPR and competition assays (sites not given))
T1 construct: Peprotech #200-04, mature protein produced in E. coli; also called hIL4; Interleukin 4
T1 sequence: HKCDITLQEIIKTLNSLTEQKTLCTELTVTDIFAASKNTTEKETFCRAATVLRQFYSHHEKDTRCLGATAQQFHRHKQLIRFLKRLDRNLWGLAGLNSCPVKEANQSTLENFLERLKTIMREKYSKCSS
Assay: Affinity to IL4; method not re-described
# pKd is unitless: minus log10 of the molar concentration; print number only

[in] Please supply the value of reported pKd for the item C01_6G9_V1_C06_44C12_V2 (designed binder, bispecific IL13/IL4 ankyrin repeat protein with (GGGGS)4 linker; also called bispecific AR protein) DLDKKLLEAARAGQDDEVRILMANGADVNARDSYGSTPLHLAAREGHLEIVEVLLKYGADVNAADFIGDTPLHLAAYRGHLEIVEVLLKYGADVNASDITGETPLHLAAQIGHLEIVEVLLKHGADVNAQDKFGKTAFDISIDNGNEDLAEILQKLNGGGGSGGGGSGGGGSGGGGSDLGKKLLEAASAGQDDEVHILMANGADVNALDDSGYTPLHLAAEDGHLEIVEVLLKHGADVNAADRLGDTPLHLAAFVGHLEIVEVLLKAGADVNAVDLAGVTPLHVAAFYGHLEIVEVLLKAGADVNAQDKFGKTAFDISIDNGNEDLAEILQKLN
[out] 11.70

[in] Tell me measured pKd for C01_6G9_V1_C06_53G6_V1 (designed binder, bispecific IL13/IL4 ankyrin repeat protein with (GGGGS)4 linker; also called bispecific AR protein) DLDKKLLEAARAGQDDEVRILMANGADVNARDSYGSTPLHLAAREGHLEIVEVLLKYGADVNAADFIGDTPLHLAAYRGHLEIVEVLLKYGADVNASDITGETPLHLAAQIGHLEIVEVLLKHGADVNAQDKFGKTAFDISIDNGNEDLAEILQKLNGGGGSGGGGSGGGGSGGGGSDLGKKLLEAARAGQDDEVRILMANGADVNATDDWGDTLLHLAATDGHLEIVEVLLKAGADVNANDAIGDTPLHLAALYGHLEIVEVLLKYGADVNATDLHGFTPLHLAAFWGHLEIVEVLLKHGADVNAQDKFGKTAFDISIDNGNEDLAEILQKLN please.
[out] 11.51

[in] Recall and state the measured pKd for C06_44C12_V2_C01_6G9_V1 (designed binder, bispecific IL4/IL13 ankyrin repeat protein with (GGGGS)4 linker; also called bispecific AR protein) DLGKKLLEAASAGQDDEVHILMANGADVNALDDSGYTPLHLAAEDGHLEIVEVLLKHGADVNAADRLGDTPLHLAAFVGHLEIVEVLLKAGADVNAVDLAGVTPLHVAAFYGHLEIVEVLLKAGADVNAQDKFGKTAFDISIDNGNEDLAEILQKLNGGGGSGGGGSGGGGSGGGGSDLDKKLLEAARAGQDDEVRILMANGADVNARDSYGSTPLHLAAREGHLEIVEVLLKYGADVNAADFIGDTPLHLAAYRGHLEIVEVLLKYGADVNASDITGETPLHLAAQIGHLEIVEVLLKHGADVNAQDKFGKTAFDISIDNGNEDLAEILQKLN .
[out] 11.77

[in] Hello, please tell me recorded pKd for this one: C01_6G9_V1_C06_28E5_V1 (designed binder, bispecific IL13/IL4 ankyrin repeat protein with (GGGGS)4 linker; also called bispecific AR protein) DLDKKLLEAARAGQDDEVRILMANGADVNARDSYGSTPLHLAAREGHLEIVEVLLKYGADVNAADFIGDTPLHLAAYRGHLEIVEVLLKYGADVNASDITGETPLHLAAQIGHLEIVEVLLKHGADVNAQDKFGKTAFDISIDNGNEDLAEILQKLGGGGSGGGGSGGGGSGGGGSRSDLGKKLLEAARAGQDDEVRILMANGADVNAADDSGITPLHLAAEDGHLEIVEVLLKAGADVNAQDNLGDTPLHLAAWTGHLEIVEVLLKAGADVNAYDISGITPLHLAAFYGHLEIVEVLLKHGADVNAQDKFGKTAFDISIDNGNEDLAEILQKLN
[out] 11.51

[in] Provide measured pKd value, entry: C06_53G6_V1_C01_6G9_V1 (designed binder, bispecific IL4/IL13 ankyrin repeat protein with (GGGGS)4 linker; also called bispecific AR protein) DLGKKLLEAARAGQDDEVRILMANGADVNATDDWGDTLLHLAATDGHLEIVEVLLKAGADVNANDAIGDTPLHLAALYGHLEIVEVLLKYGADVNATDLHGFTPLHLAAFWGHLEIVEVLLKHGADVNAQDKFGKTAFDISIDNGNEDLAEILQKLNGGGGSGGGGSGGGGSGGGGSDLDKKLLEAARAGQDDEVRILMANGADVNARDSYGSTPLHLAAREGHLEIVEVLLKYGADVNAADFIGDTPLHLAAYRGHLEIVEVLLKYGADVNASDITGETPLHLAAQIGHLEIVEVLLKHGADVNAQDKFGKTAFDISIDNGNEDLAEILQKLN
[out] 10.96

[in] Provide measured pKd value, entry: C06_28E5_V1_C01_6G9_V1 (designed binder, bispecific IL4/IL13 ankyrin repeat protein with (GGGGS)4 linker; also called bispecific AR protein) DLGKKLLEAARAGQDDEVRILMANGADVNAADDSGITPLHLAAEDGHLEIVEVLLKAGADVNAQDNLGDTPLHLAAWTGHLEIVEVLLKAGADVNAYDISGITPLHLAAFYGHLEIVEVLLKHGADVNAQDKFGKTAFDISIDNGNEDLAEILQKLNGGGGSGGGGSGGGGSGGGGSDLDKKLLEAARAGQDDEVRILMANGADVNARDSYGSTPLHLAAREGHLEIVEVLLKYGADVNAADFIGDTPLHLAAYRGHLEIVEVLLKYGADVNASDITGETPLHLAAQIGHLEIVEVLLKHGADVNAQDKFGKTAFDISIDNGNEDLAEILQKLN
[out] 10.66

The values you see were collected from patent US20120277143A1.
